Exercise: state measured Cmax for each of the compounds provided.
test: Human crossover study for D9-ivacaftor and D18-ivacaftor (25 mg single dose); type: in vivo; details: human, in vivo; 25 mg single oral dose, aqueous suspension, fasted
Give bare numbers, in ng/mL.

INSERT INTO assay_data (compound, measured_endpoint, test_value) VALUES
  ('[2H]C([2H])([2H])C(c1cc(C(C([2H])([2H])[2H])(C([2H])([2H])[2H])C([2H])([2H])[2H])c(NC(=O)c2c[nH]c3ccccc3c2=O)cc1O)(C([2H])([2H])[2H])C([2H])([2H])[2H] [D18-ivacaftor]', 'Cmax', 233);

INPUT: Endpoint output: Cmax of [2H]C([2H])([2H])C(c1cc(C(C)(C)C)c(NC(=O)c2c[nH]c3ccccc3c2=O)cc1O)(C([2H])([2H])[2H])C([2H])([2H])[2H] [CTP-656] . Value?
OUTPUT: 270

====

assay: Phase 1 single ascending dose (SAD) clinical trial: pharmacokinetics, safety and tolerability; type: in vivo, human; conditions: both sexes, human, in vivo; 300 mg single oral dose, after high-fat breakfast; read-out: AUC0-inf, mean
Measured endpoint: AUC(0-inf) (µg·h/mL)
Give bare numbers, in µg·h/mL.

INPUT: Endpoint output: AUC(0-inf) of `[2H]C([2H])([2H])C(c1cc(C(C)(C)C)c(NC(=O)c2c[nH]c3ccccc3c2=O)cc1O)(C([2H])([2H])[2H])C([2H])([2H])[2H]` . Value?
OUTPUT: 105

====

experiment: Human crossover study for D9-ivacaftor and D18-ivacaftor (25 mg single dose); type: in vivo; conditions: human, in vivo; 25 mg single oral dose, aqueous suspension, fasted; read-out: AUC0-inf, mean
Measured endpoint: AUC(0-inf) (ng·h/mL)
Answers are plain numbers, in ng·h/mL.

INSERT INTO measurements (mol_smiles, measured_endpoint, unit_descriptor, test_value) VALUES
  ('[2H]C([2H])([2H])C(c1cc(C(C)(C)C)c(NC(=O)c2c[nH]c3ccccc3c2=O)cc1O)(C([2H])([2H])[2H])C([2H])([2H])[2H]', 'AUC(0-inf)', 'ng·h/mL', 3810);

We next turn to a different molecule, shown below.
INPUT: Endpoint output: AUC(0-inf) of `[2H]C([2H])([2H])C(c1cc(C(C([2H])([2H])[2H])(C([2H])([2H])[2H])C([2H])([2H])[2H])c(NC(=O)c2c[nH]c3ccccc3c2=O)cc1O)(C([2H])([2H])[2H])C([2H])([2H])[2H]` . Value?
OUTPUT: 3200

====

assay: Human crossover study for D9-ivacaftor and D18-ivacaftor (25 mg single dose); assay type: in vivo; conditions: human, in vivo; 25 mg single oral dose, aqueous suspension, fasted; read-out: Tmax, median
Measured endpoint: Tmax (h)
Give bare numbers, in h.

Hey, can you go through the list below and give me Tmax for every item?
1. [2H]C([2H])([2H])C(c1cc(C(C)(C)C)c(NC(=O)c2c[nH]c3ccccc3c2=O)cc1O)(C([2H])([2H])[2H])C([2H])([2H])[2H] [CTP-656]
2. [2H]C([2H])([2H])C(c1cc(C(C([2H])([2H])[2H])(C([2H])([2H])[2H])C([2H])([2H])[2H])c(NC(=O)c2c[nH]c3ccccc3c2=O)cc1O)(C([2H])([2H])[2H])C([2H])([2H])[2H] [D18-ivacaftor]

OUTPUT:
1. 3
2. 2.5
